# EXPERIMENTAL SYSTEM: Melanocortin receptor 4 (Mus musculus) (UniProt P56450)
# Sequence (P56450 whole entry): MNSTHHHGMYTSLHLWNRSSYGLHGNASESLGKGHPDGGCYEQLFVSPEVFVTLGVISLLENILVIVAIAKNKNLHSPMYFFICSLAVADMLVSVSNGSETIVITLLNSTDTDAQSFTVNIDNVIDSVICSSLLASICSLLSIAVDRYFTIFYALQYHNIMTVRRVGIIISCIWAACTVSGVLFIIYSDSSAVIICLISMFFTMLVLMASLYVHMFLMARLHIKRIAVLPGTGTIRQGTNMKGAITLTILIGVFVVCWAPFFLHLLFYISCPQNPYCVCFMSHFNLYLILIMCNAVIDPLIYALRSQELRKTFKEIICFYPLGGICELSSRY
# TEST DETAILS: Agonist activity at mouse MC4R expressed in HEK293 cells assessed as induction of intracellular cAMP accumulation after 2 hrs by AlphaScreen assay
# Assay type: functional, cell-based
Calls of active or inactive are those of the source. The rule behind the calls is not given here.

SMILES RECORD: CC(=O)N[C@@H](Cc1cnc[nH]1)C(=O)N[C@H](Cc1ccccc1)C(=O)N[C@@H](CCCNC(=N)N)C(=O)N[C@@H](Cc1c[nH]c2ccccc12)C(=O)NCCCOCCOCCOCCCNC(=O)COCC(=O)N[C@@H](Cc1cnc[nH]1)C(=O)N[C@H](Cc1ccccc1)C(=O)N[C@@H](CCCNC(=N)N)C(=O)N[C@@H](Cc1c[nH]c2ccccc12)C(N)=O
EXPERIMENTAL SYSTEM: Melanocortin receptor 4 (Mus musculus) (UniProt P56450)
Activity: Active
//
SMILES RECORD: CC(=O)N[C@@H](Cc1cnc[nH]1)C(=O)N[C@H](Cc1ccccc1)C(=O)N[C@@H](CCCNC(=N)N)C(=O)N[C@@H](Cc1c[nH]c2ccccc12)C(N)=O
EXPERIMENTAL SYSTEM: Melanocortin receptor 4 (Mus musculus) (UniProt P56450)
Activity: Active

* * *

Property: Activity; scope: individual compounds
# EXPERIMENTAL SYSTEM: Melanocortin receptor 4 (Homo sapiens, UniProt P32245)
# Sequence (P32245 whole entry): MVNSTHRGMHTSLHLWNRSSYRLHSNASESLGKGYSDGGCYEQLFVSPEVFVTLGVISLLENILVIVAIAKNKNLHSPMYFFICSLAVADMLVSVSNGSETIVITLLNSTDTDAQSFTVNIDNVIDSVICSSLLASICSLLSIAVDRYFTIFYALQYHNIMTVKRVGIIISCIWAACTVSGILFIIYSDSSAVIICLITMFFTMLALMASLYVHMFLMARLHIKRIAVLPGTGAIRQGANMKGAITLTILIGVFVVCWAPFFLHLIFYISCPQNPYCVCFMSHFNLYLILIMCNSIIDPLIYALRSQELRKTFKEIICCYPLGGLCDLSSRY
# TEST DETAILS: Agonist activity at human FLAG-tagged MC4R expressed in HEK293 cells assessed as induction of intracellular cAMP accumulation at 10 uM after 2 hrs by AlphaScreen assay relative to NDP-MSH
# Assay type: functional, cell-based
Non-standard residues stand in square brackets, D forms with d. Residues, ends and D or L forms follow the SMILES beside them. d2Nal = N[C@H](Cc1ccc2ccccc2c1)C(=O)O
Provide only the numeric value, understood in %.

Solved cases (3 shown):
COMPOUND: CC(=O)N[C@@H](Cc1c[nH]cn1)C(=O)N[C@H](Cc1ccc2ccccc2c1)C(=O)N[C@@H](CCCN=C(N)N)C(=O)N[C@@H](Cc1c[nH]c2ccccc12)C(N)=O
EXPERIMENTAL SYSTEM: Melanocortin receptor 4 (Homo sapiens, UniProt P32245)
ENDPOINT UNIT: %
Activity: 50
--
COMPOUND: N=C(N)NCCC[C@H](NC(=O)[C@@H](Cc1ccc2ccccc2c1)NC(=O)[C@H](Cc1cnc[nH]1)NC(=O)COCC(=O)NCCCOCCOCCOCCCN)C(=O)N[C@@H](Cc1c[nH]c2ccccc12)C(N)=O
EXPERIMENTAL SYSTEM: Melanocortin receptor 4 (Homo sapiens, UniProt P32245)
ENDPOINT UNIT: %
Activity: 50
--
COMPOUND: CC(=O)N[C@@H](Cc1cnc[nH]1)C(=O)N[C@H](Cc1ccc2ccccc2c1)C(=O)N[C@@H](CCCNC(=N)N)C(=O)N[C@@H](Cc1c[nH]c2ccccc12)C(=O)NCCCOCCOCCOCCCNC(=O)COCC(N)=O
EXPERIMENTAL SYSTEM: Melanocortin receptor 4 (Homo sapiens, UniProt P32245)
ENDPOINT UNIT: %
Activity: 55

Problem: Provide one value: measured Activity of CC(=O)N[C@@H](Cc1cnc[nH]1)C(=O)N[C@H](Cc1ccc2ccccc2c1)C(=O)N[C@@H](CCCNC(=N)N)C(=O)N[C@@H](Cc1c[nH]c2ccccc12)C(=O)N1CCC[C@H]1C(=O)NCC(=O)N1CCC[C@H]1C(=O)NCC(=O)N1CCC[C@H]1C(=O)NCC(=O)N1CCC[C@H]1C(=O)NCC(=O)N1CCC[C@H]1C(=O)NCC(=O)N1CCC[C@H]1C(=O)NCC(N)=O (Ac-H[d2Nal]RWPGPGPGPGPGPG-NH2)
Result: 55

Problem: Provide one value: measured Activity of `CC(=O)N[C@@H](Cc1cnc[nH]1)C(=O)N[C@H](Cc1ccc2ccccc2c1)C(=O)N[C@@H](CCCNC(=N)N)C(=O)N[C@@H](Cc1c[nH]c2ccccc12)C(=O)NCCCOCCOCCOCCCNC(=O)COCC(=O)N[C@@H](Cc1cnc[nH]1)C(=O)N[C@H](Cc1ccc2ccccc2c1)C(=O)N[C@@H](CCCNC(=N)N)C(=O)N[C@@H](Cc1c[nH]c2ccccc12)C(N)=O`
Result: 70

* * *

# EXPERIMENTAL SYSTEM: Melanocortin receptor 4 (Homo sapiens, UniProt P32245)
# TEST DETAILS: Agonist activity at human FLAG-tagged MC4R expressed in HTLA cells assessed as induction of beta-arrestin recruitment at 10 uM after 18 hrs by Presto-tango assay relative to NDP-MSH
# Format: cell-based
PROPERTY MEASURED: Activity (%)
Response body: numeric value in %, unit text excluded.

Recorded Activity, per entry:
SMILES RECORD: CC(=O)N[C@@H](Cc1cnc[nH]1)C(=O)N[C@H](Cc1ccc2ccccc2c1)C(=O)N[C@@H](CCCNC(=N)N)C(=O)N[C@@H](Cc1c[nH]c2ccccc12)C(=O)NCCCOCCOCCOCCCNC(=O)COCC(=O)N[C@@H](Cc1cnc[nH]1)C(=O)N[C@H](Cc1ccccc1)C(=O)N[C@@H](CCCNC(=N)N)C(=O)N[C@@H](Cc1c[nH]c2ccccc12)C(N)=O
VALUE OBSERVED: 20
--
SMILES RECORD: CC(=O)N[C@@H](Cc1cnc[nH]1)C(=O)N[C@H](Cc1ccc2ccccc2c1)C(=O)N[C@@H](CCCNC(=N)N)C(=O)N[C@@H](Cc1c[nH]c2ccccc12)C(=O)NCCCOCCOCCOCCCNC(=O)COCC(=O)N[C@@H](Cc1cnc[nH]1)C(=O)N[C@H](Cc1ccc2ccccc2c1)C(=O)N[C@@H](CCCNC(=N)N)C(=O)N[C@@H](Cc1c[nH]c2ccccc12)C(N)=O
VALUE OBSERVED: 10

Next up:
Problem: Report measured Activity; entry is `CC(=O)N[C@@H](Cc1cnc[nH]1)C(=O)N[C@H](Cc1ccccc1)C(=O)N[C@@H](CCCNC(=N)N)C(=O)N[C@@H](Cc1c[nH]c2ccccc12)C(=O)NCCCOCCOCCOCCCNC(=O)COCC(=O)N[C@@H](Cc1cnc[nH]1)C(=O)N[C@H](Cc1ccc2ccccc2c1)C(=O)N[C@@H](CCCNC(=N)N)C(=O)N[C@@H](Cc1c[nH]c2ccccc12)C(N)=O`
Result: 45

* * *

# EXPERIMENTAL SYSTEM: Melanocortin receptor 4 (Mus musculus) (UniProt P56450)
# TEST DETAILS: Agonist activity at mouse MC4R expressed in HEK293 cells assessed as induction of intracellular cAMP accumulation after 2 hrs by AlphaScreen assay
# Format: functional, cell-based
Activity calls are given as the source filed them. No cut-off for these calls is given here.
PROPERTY MEASURED: Activity

SMILES RECORD: CC(=O)N[C@@H](Cc1cnc[nH]1)C(=O)N[C@H](Cc1ccc2ccccc2c1)C(=O)N[C@@H](CCCNC(=N)N)C(=O)N[C@@H](Cc1c[nH]c2ccccc12)C(=O)NCCCOCCOCCOCCCNC(=O)COCC(=O)N[C@@H](Cc1cnc[nH]1)C(=O)N[C@H](Cc1ccc2ccccc2c1)C(=O)N[C@@H](CCCNC(=N)N)C(=O)N[C@@H](Cc1c[nH]c2ccccc12)C(N)=O
VALUE OBSERVED: inactive
//
SMILES RECORD: CC(=O)N[C@@H](Cc1c[nH]cn1)C(=O)N[C@H](Cc1ccc2ccccc2c1)C(=O)N[C@@H](CCCN=C(N)N)C(=O)N[C@@H](Cc1c[nH]c2ccccc12)C(N)=O
VALUE OBSERVED: inactive

* * *

The following compounds are listed with their measured Ratio EC50 values.
# EXPERIMENTAL SYSTEM: Melanocortin receptor 4 (Homo sapiens)
# TEST DETAILS: Selectivity ratio of EC50 for agonist activity at human FLAG-tagged MC4R expressed in HTLA cells assessed as induction of beta-arrestin recruitment to EC50 for agonist activity at human FLAG-tagged MC4R expressed in HEK293 cells assessed as induction of intracellular cAMP accumulation
# Type: functional, cell-based
Write the value as a bare number.

Worked examples follow.
SMILES RECORD: CC(=O)N[C@@H](Cc1cnc[nH]1)C(=O)N[C@H](Cc1ccccc1)C(=O)N[C@@H](CCCNC(=N)N)C(=O)N[C@@H](Cc1c[nH]c2ccccc12)C(=O)NCCCOCCOCCOCCCNC(=O)COCC(=O)N[C@@H](Cc1cnc[nH]1)C(=O)N[C@H](Cc1ccc2ccccc2c1)C(=O)N[C@@H](CCCNC(=N)N)C(=O)N[C@@H](Cc1c[nH]c2ccccc12)C(N)=O
Ratio EC50: 3000

SMILES RECORD: CC(=O)N[C@@H](Cc1cnc[nH]1)C(=O)N[C@H](Cc1ccc2ccccc2c1)C(=O)N[C@@H](CCCNC(=N)N)C(=O)N[C@@H](Cc1c[nH]c2ccccc12)C(=O)NCCCOCCOCCOCCCNC(=O)COCC(=O)N[C@@H](Cc1cnc[nH]1)C(=O)N[C@H](Cc1ccccc1)C(=O)N[C@@H](CCCNC(=N)N)C(=O)N[C@@H](Cc1c[nH]c2ccccc12)C(N)=O
Ratio EC50: 3000

API: the following record is the query input.
Problem: Indicate the recorded Ratio EC50 value for this compound: `CC(=O)N[C@@H](Cc1cnc[nH]1)C(=O)N[C@H](Cc1ccc2ccccc2c1)C(=O)N[C@@H](CCCNC(=N)N)C(=O)N[C@@H](Cc1c[nH]c2ccccc12)C(=O)N1CCC[C@H]1C(=O)NCC(=O)N1CCC[C@H]1C(=O)NCC(=O)N1CCC[C@H]1C(=O)NCC(=O)N1CCC[C@H]1C(=O)NCC(=O)N1CCC[C@H]1C(=O)NCC(=O)N1CCC[C@H]1C(=O)NCC(=O)N[C@@H](Cc1cnc[nH]1)C(=O)N[C@H](Cc1ccccc1)C(=O)N[C@@H](CCCNC(=N)N)C(=O)N[C@@H](Cc1c[nH]c2ccccc12)C(N)=O`
Result: 3000
